Entry source: patent US10538487B2

STUDY_TARGET: NLRP3 inflammasome (Homo sapiens)
Sequence (Q96P20 whole entry): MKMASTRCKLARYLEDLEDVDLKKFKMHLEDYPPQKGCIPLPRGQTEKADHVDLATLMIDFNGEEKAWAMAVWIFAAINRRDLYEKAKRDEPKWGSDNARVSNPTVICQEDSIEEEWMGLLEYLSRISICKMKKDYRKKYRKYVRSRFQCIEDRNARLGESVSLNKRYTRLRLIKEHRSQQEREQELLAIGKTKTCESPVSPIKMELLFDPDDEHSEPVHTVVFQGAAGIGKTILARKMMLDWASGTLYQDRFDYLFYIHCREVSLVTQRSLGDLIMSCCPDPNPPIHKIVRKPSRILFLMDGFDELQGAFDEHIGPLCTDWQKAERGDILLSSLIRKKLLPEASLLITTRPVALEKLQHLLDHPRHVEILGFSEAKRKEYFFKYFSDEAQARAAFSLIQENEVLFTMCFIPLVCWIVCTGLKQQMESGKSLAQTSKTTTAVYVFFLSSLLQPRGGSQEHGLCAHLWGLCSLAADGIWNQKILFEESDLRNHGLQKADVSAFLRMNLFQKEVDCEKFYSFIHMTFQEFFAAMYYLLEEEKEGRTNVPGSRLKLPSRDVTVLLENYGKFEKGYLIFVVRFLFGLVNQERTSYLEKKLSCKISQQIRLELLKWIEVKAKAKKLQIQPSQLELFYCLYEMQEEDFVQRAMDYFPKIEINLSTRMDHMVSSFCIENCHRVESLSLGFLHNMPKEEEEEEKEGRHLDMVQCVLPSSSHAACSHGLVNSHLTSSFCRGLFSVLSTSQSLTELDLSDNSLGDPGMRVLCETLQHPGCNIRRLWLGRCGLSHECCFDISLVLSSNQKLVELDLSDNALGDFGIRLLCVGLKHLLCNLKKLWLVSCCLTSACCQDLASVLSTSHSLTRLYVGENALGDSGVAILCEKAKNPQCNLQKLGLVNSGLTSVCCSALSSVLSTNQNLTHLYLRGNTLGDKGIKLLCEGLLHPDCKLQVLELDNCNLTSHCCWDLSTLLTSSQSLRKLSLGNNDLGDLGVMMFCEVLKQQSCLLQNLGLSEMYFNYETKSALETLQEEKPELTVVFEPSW
TEST_NAME: Inhibition of IL-1β release, NLRP3 inflammasome activation assay in HMDM
Format: cell-based
MEASUREMENT_CONTEXT: inhibition of IL-1β release, class symbols, read-out: Avg. IL-1β IC50 HMDM
MEASURED_PARAMETER: IC50

// sample `CC(C)(O)c1cc(S(=O)(=O)NC(=O)Nc2c3c(cc4c2CCC4)CCC3)nn1Cc1ccccc1` , its IC50 was < 0.1 µM

IC50 in this record for `O=C(Nc1c2c(cc3c1CCC3)CCC2)NS(=O)(=O)c1cccc(OC(F)F)c1` : < 1 µM

Measured IC50, `COc1ccc2c(c1)C(=O)N(CCc1ccc(S(=O)(=O)NC(=O)Nc3c4c(cc5c3CCC5)CCC4)cc1)C(=O)C2(C)C` : < 10 µM

Entry `O=C(Nc1c2c(cc3c1CCC3)CCC2)NS(=O)(=O)c1ccn(C2CCCCC2)n1` — recorded IC50 = < 1 µM

Query `C#CCCC(=O)Nc1cccc(S(=O)(=O)NC(=O)Nc2c3c(cc4c2CCC4)CCC3)c1` yields IC50 of < 1 µM

Value of measured IC50 for the entry `CN(C)c1cccc2c(S(=O)(=O)NC(=O)Nc3c4c(cc5c3CCC5)CCC4)cccc12` : < 1 µM

Form field IC50, entry CC(C)(O)c1coc(S(=O)(=O)NC(=O)Nc2c3c(cc4c2C(O)CC4)CCC3)c1 (stereo not drawn) : < 1 µM

Sample `CC(C)c1cccc(C(C)C)c1NC(=O)NS(=O)(=O)c1cc(C(C)(C)O)n(C)n1` ; IC50 observed: < 0.1 µM

For `O=C(Nc1c2c(cc3c1CCC3)CCC2)NS(=O)(=O)c1ccn(Cc2ccccc2)n1` the molecule record lists IC50 as < 10 µM

Entry under test: `NC(=O)c1cccc(S(=O)(=O)NC(=O)Nc2c3c(cc4c2CCC4)CCC3)c1` . Its IC50 was < 1 µM

Just so you know, measured IC50 for `Cc1cc(Cl)cc(C)c1NC(=O)NS(=O)(=O)c1ccn(C(C)C)n1` came out at < 10 µM

Reported IC50 of `CN(C)S(=O)(=O)NC(=O)Nc1c2c(cc3c1CCC3)CCC2` : < 10 µM

Data point: `NS(=O)(=O)c1cccc(S(=O)(=O)NC(=O)Nc2c3c(cc4c2CCC4)CCC3)c1` ; IC50 = < 0.1 µM

Item: `Cc1cc(S(=O)(=O)NC(=O)Nc2c3c(cc4c2CCC4)CCC3)nn1C` | IC50: < 1 µM

Memo: `O=C(CCc1cn(CCCNc2ccc([N+](=O)[O-])c3nonc23)nn1)Nc1cccc(S(=O)(=O)NC(=O)Nc2c3c(cc4c2CCC4)CCC3)c1` , reported IC50: < 10 µM

Field IC50 (entry `[N-]=[N+]=Nc1cccc(S(=O)(=O)NC(=O)Nc2c3c(cc4c2CCC4)CCC3)c1` ) reads < 1 µM

Short answer for `CC(=O)c1ccc(S(=O)(=O)NC(=O)Nc2c3c(cc4c2CCC4)CCC3)cc1` : IC50 was < 1 µM

// `Cc1cc(C(=O)NCCc2ccc(S(=O)(=O)NC(=O)Nc3c4c(cc5c3CCC5)CCC4)cc2)no1` : IC50 value = < 1 µM

Sample `CC(C)(O)c1coc(S(=O)(=O)NC(=O)Nc2cccc3cccnc23)c1` ; IC50 observed: < 10 µM

Entry `C=C(C)c1coc(S(=O)(=O)NC(=O)Nc2c3c(cc4c2CCC4)CCC3)c1` — recorded IC50 = < 1 µM

Entry `O=C(Nc1c2c(cc3c1CCC3)CCC2)NS(=O)(=O)c1ccc2c(c1)S(=O)(=O)CC2` , IC50 reported as < 1 µM

Measured IC50 of `CN(CC(=O)NCCc1ccc(S(=O)(=O)NC(=O)Nc2c3c(cc4c2CCC4)CCC3)cc1)c1ccc([N+](=O)[O-])c2nonc12` : < 10 µM

The value of IC50 measured for the molecule `[2H]C([2H])([2H])C(O)(c1cc(S(=O)(=O)NC(=O)Nc2c3c(cc4c2CCO4)CCC3)oc1C)C([2H])([2H])[2H]` turned out to be < 0.1 µM

get_value(item= `C#CCNC(=O)CCc1ccc(S(=O)(=O)NC(=O)Nc2c3c(cc4c2CCC4)CCC3)cc1` , readout=IC50) returns < 0.1 µM

Memo: `O=C(Nc1c2c(cc3c1CCC3)CCC2)NS(=O)(=O)c1ccc(CCNc2ccc([N+](=O)[O-])c3nonc23)cc1` , reported IC50: < 1 µM

Recorded result, `COc1ccccc1S(=O)(=O)NC(=O)Nc1c2c(cc3c1CCC3)CCC2` , IC50: < 1 µM

Just so you know, measured IC50 for `O=C(Nc1c2c(cc3c1CCC3)CCC2)NS(=O)(=O)C1CCOCC1` came out at < 1 µM

Note to self: IC50 recorded for `CC(C)(O)c1coc(S(=O)(=O)NC(=O)Nc2cc(C(F)(F)F)ccc2C(F)(F)F)c1` was < 10 µM

Notebook: `O=C(Nc1c2c(cc3c1CCC3)CCC2)NS(=O)(=O)c1ccn(CCN2CCCCC2)n1` , IC50 read as < 10 µM

get_value(item= `CC(C)c1cc(Cl)cc(C(C)C)c1NC(=O)NS(=O)(=O)c1ccc2ccccc2c1` , readout=IC50) returns < 10 µM

Record `O=C(Nc1c2c(cc3c1CCC3)CCC2)NS(=O)(=O)c1ccn(-c2ccccc2)n1` . Reported IC50: < 1 µM

Record `Cc1ccc(S(=O)(=O)NC(=O)Nc2c3c(cc4c2CCC4)CCC3)s1` , field IC50: < 0.1 µM

Recorded IC50 (molecule `O=C(Nc1c2c(cc3c1CCC3)CCC2)NS(=O)(=O)c1ccn(C(F)(F)F)n1` ): < 0.1 µM

According to the records, this molecule `O=C(Nc1c2c(cc3c1CCC3)CCC2)NS(=O)(=O)c1ncn(Cc2ccccc2)n1` displays IC50 of < 0.1 µM

Sure, the documented IC50 for `CN(C)Cc1ccc(S(=O)(=O)NC(=O)Nc2c3c(cc4c2CCC4)CCC3)o1` is < 0.1 µM

`O=C(CCCC[C@@H]1SC[C@@H]2NC(=O)N[C@@H]21)NCCCn1cc(CCC(=O)Nc2cccc(S(=O)(=O)NC(=O)Nc3c4c(cc5c3CCC5)CCC4)c2)nn1` yielded IC50 of < 10 µM

====

TEST_NAME: Single dose pharmacokinetic study in mice (iv 4 mg/Kg, po 20 mg/Kg), plasma concentration post-dosing
Assay type: in vivo, mouse
MEASUREMENT_CONTEXT: male, C57BL/6, mouse, plasma, iv, 4 mg/kg, mouse, IV 4 mg/Kg, 5 min post dosing, individual mice M1-M3; read-out: Plasma concentration, IV Time 0.0833 h
Record form. Attribute: concentration at 5 min. Fill in for each entry.
Give the value, in units of ng/mL, as a plain number.

Looking up CC(C)n1ccc(S(=O)(=O)NC(=O)Nc2c3c(cc4c2CCC4)CCC3)n1 [MCC_007840_002] , I see its concentration at 5 min listed as 47800

Lab note: CC(C)(O)c1coc(S(=O)(=O)NC(=O)Nc2c3c(cc4c2CCC4)CCC3)c1 [MCC_000950_016, reference compound] gave concentration at 5 min of 20200

====

TEST_NAME: Single dose pharmacokinetic study in mice (iv 4 mg/Kg, po 20 mg/Kg), plasma concentration post-dosing
Type: in vivo, mouse
MEASUREMENT_CONTEXT: male, C57BL/6, mouse, plasma, iv, 4 mg/kg, mouse, IV 4 mg/Kg, 8.00 h post dosing, mean of 3 mice; read-out: Plasma concentration, IV Time 8.00 h, Mean IV
MEASURED_PARAMETER: concentration at 8 h (ng/mL)
Give the value in ng/mL but do not write ng/mL after it.

# compound `CC(C)n1ccc(S(=O)(=O)NC(=O)Nc2c3c(cc4c2CCC4)CCC3)n1` ; its concentration at 8 h = 3760

The recorded concentration at 8 h for CC(C)(O)c1coc(S(=O)(=O)NC(=O)Nc2c3c(cc4c2CCC4)CCC3)c1 [MCC_000950_016, reference compound] is 743

====

Exercise: state measured AUC0-inf for each of the compounds provided.
TEST_NAME: Single dose pharmacokinetic study in mice (iv 4 mg/Kg, po 20 mg/Kg), plasma concentration post-dosing
Format: in vivo, mouse
MEASUREMENT_CONTEXT: male, C57BL/6, mouse, plasma, po, 20 mg/kg, mouse, PO 20 mg/Kg, mean of 3 mice; read-out: AUC0-inf, Mean PO
Give the quantity in µg·h/mL, number only.

GET /value?item= `CC(C)n1ccc(S(=O)(=O)NC(=O)Nc2c3c(cc4c2CCC4)CCC3)n1` &field=AUC0-inf returns 362

CC(C)(O)c1coc(S(=O)(=O)NC(=O)Nc2c3c(cc4c2CCC4)CCC3)c1 [MCC_000950_016, reference compound] has a reported AUC0-inf of 126
